Hello, the source for this data is PubChem BioAssay AID2060902, in case you need it.

# System: 485368-065-R3-J5-PDC spheroids with HUVEC/MSC, viability;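 also: spheroids exposed to agents for seven days before readout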
# Experiment: Anticancer human tumor 485368-065-R3-J5-PDC patient-derived pancreatic carcinoma cell line growth inhibition [RAS]; active = viability on the fitted dose curve at most 10% of control; inactive = the rest
# Particulars: second compound 0.00949 µM; first compound 0.3 µM
# valid calls are active, inactive; nothing else

Molecule	Cat
CC1(C)CCC(Nc2ncc(C(F)(F)F)c(-c3c[nH]c4c(P(C)(C)=O)c(C#N)ccc34)n2)CN1 (centres undefined) + CCn1c(-c2cc(N3CCN(C)CC3)cnc2C(C)OC)c2c3cc(ccc31)-c1csc(n1)CC(NC(=O)C1CC1C)C(=O)N1CCCC(N1)C(=O)OCC(C)(C)C2	inactive
CCc1c2c(nc3ccc(O)cc13)-c1cc3c(c(=O)n1C2)COC(=O)[C@]3(O)CC + CCn1c(-c2cc(N3CCN(C)CC3)cnc2C(C)OC)c2c3cc(ccc31)-c1csc(n1)CC(NC(=O)C1CC1C)C(=O)N1CCCC(N1)C(=O)OCC(C)(C)C2	active
CCc1c2c(nc3ccc(O)cc13)-c1cc3c(c(=O)n1C2)COC(=O)[C@]3(O)CC + CCn1c(-c2cccnc2C(C)OC)c2c3cc(ccc31)N1CCOC(CC(NC(=O)C(C(C)C)N(C)C(=O)C3(F)CCN(C(=O)C#CC(C)(C)N(C)C)CC3)C(=O)N3CCCC(N3)C(=O)OCC(C)(C)C2)C1	active

-- ask Call for entry CC1(C)CCC(Nc2ncc(C(F)(F)F)c(-c3c[nH]c4c(P(C)(C)=O)c(C#N)ccc34)n2)CN1 (centres undefined) + CCn1c(-c2cccnc2C(C)OC)c2c3cc(ccc31)N1CCOC(CC(NC(=O)C(C(C)C)N(C)C(=O)C3(F)CCN(C(=O)C#CC(C)(C)N(C)C)CC3)C(=O)N3CCCC(N3)C(=O)OCC(C)(C)C2)C1 :
-- reply inactive
